Reference source: PubChem BioAssay (EPA / NIEHS)

target: Estrogen receptor beta (Homo sapiens); assay: OT_ER_ERbERb_0480: Odyssey Thera (OT) 8-hour HEK293T Protein-Complementation Assay for Estrogen Receptor-beta/-beta Homodimer (AID 2283357);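 note: active means signal gain over DMSO baseline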
Inconclusive results are not listed. Calls of active or inactive are those of the source. Rule for the calls: active = hit-call score of the fitted dose curve at least 0.9, where 1 is the maximum; inconclusive = response in the unintended direction; inactive = score below 0.9.
Outcomes: active, inactive

{"compound": "CCN(Cc1cccnc1)C(=O)c1cccc(Cl)c1[C@]1(C)C(=O)N(Cc2ccc(OC)cc2OC)c2ccc(Cl)cc21", "assigned.label": "inactive"}
{"compound": "CN1C(=O)CC[C@H]1c1cccnc1", "assigned.label": "inactive"}
{"compound": "CC1=CC(=O)/C(=C(/C)O)C(=O)O1", "assigned.label": "inactive"}
{"compound": "CCCCCCCCCCCC[N+](C)(C)C", "assigned.label": "inactive"}
{"compound": "CCN(Cc1cccc(S(=O)(=O)O)c1)c1ccc(C(=C2C=CC(=[N+](CC)Cc3cccc(S(=O)(=O)O)c3)C=C2)c2ccccc2S(=O)(=O)[O-])cc1", "assigned.label": "inactive"}
{"compound": "Cc1cc2c(cc1C(F)(F)F)N(C(=O)Nc1ccc(Oc3cccnc3C)nc1)CC2", "assigned.label": "inactive"}
{"compound": "Cc1c2ccccc2c(C)c2c1ccc1ccccc12", "assigned.label": "inactive"}
{"compound": "O=c1[nH]sc2ccccc12", "assigned.label": "inactive"}
{"compound": "CN1C(=O)N(c2ccccc2Br)Cc2cnc(Nc3ccc4c(c3)OCC(CO)O4)nc21 (configuration not stated)", "assigned.label": "inactive"}
{"compound": "CC1(C)NC(=O)N(c2ccc([N+](=O)[O-])c(C(F)(F)F)c2)C1=O", "assigned.label": "inactive"}
{"compound": "CC[C@@H]1C[C@H](N(Cc2cc(C(F)(F)F)cc(C(F)(F)F)c2)C(C)=O)c2cc(C(F)(F)F)ccc2N1C(=O)OC(C)C", "assigned.label": "inactive"}
{"compound": "Oc1ccc2ccccc2c1", "assigned.label": "active"}
{"compound": "COc1cc(C(=O)NC2CCN(C)CC2)ccc1Nc1ncc2c(n1)N(C1CCCC1)CC(F)(F)C(=O)N2C", "assigned.label": "inactive"}
{"compound": "Cc1cc(F)ccc1-c1cc(N2CC[C@@H](O)[C@H]2CO)ncc1N(C)C(=O)C(C)(C)c1cc(C(F)(F)F)cc(C(F)(F)F)c1", "assigned.label": "inactive"}
{"compound": "CC[C@H](NC(=O)c1cc(F)ccc1NS(=O)(=O)c1cccc2cccnc12)c1ccccc1", "assigned.label": "inactive"}
{"compound": "CC(C)(C)c1csc(-c2cc3cc(OCc4ccccc4CC(=O)O)ccc3o2)n1", "assigned.label": "inactive"}
{"compound": "CCCOC(=O)c1cc(O)c(O)c(O)c1", "assigned.label": "active"}
{"compound": "CC(C)(O)c1ccc(CNC(=O)c2cccnc2Oc2ccc3nonc3c2)cc1", "assigned.label": "inactive"}
{"compound": "Cc1ccc2oc(CN(Cc3ccccc3)C(=O)Nc3c(F)cc(F)cc3F)c(-c3ccc(Cl)cc3)c2c1", "assigned.label": "inactive"}
{"compound": "CO[C@H]1/C=C/O[C@@]2(C)Oc3c(C)c(O)c4c(O)c(c(/C=N/N5CCN(C)CC5)c(O)c4c3C2=O)NC(=O)/C(C)=C\\C=C\\[C@H](C)[C@H](O)[C@@H](C)[C@@H](O)[C@@H](C)[C@H](OC(C)=O)[C@@H]1C", "assigned.label": "inactive"}
{"compound": "O=C(Nc1ccc(Cl)cc1)Nc1ccc(Cl)c(Cl)c1", "assigned.label": "inactive"}
{"compound": "CCCCCCCCOC(=O)c1cc(O)c(O)c(O)c1", "assigned.label": "active"}
{"compound": "NCc1cccc(C2CCN(C(=O)c3ccc(C#Cc4ccccc4F)o3)CC2)c1", "assigned.label": "inactive"}
{"compound": "CC(=O)N1CCN(c2ccc(OC[C@H]3CO[C@](Cn4ccnc4)(c4ccc(Cl)cc4Cl)O3)cc2)CC1", "assigned.label": "inactive"}
{"compound": "Cc1occc1C(=O)Nc1ccc(C(=O)N2CCC(F)(F)/C(=C\\C(=O)N3CCC(N4CCCCC4)CC3)c3ccccc32)cc1", "assigned.label": "inactive"}
{"compound": "O=C(O)Cn1c(=O)n(Cc2ccc(Br)cc2F)c(=O)c2ccc(Cl)cc21", "assigned.label": "inactive"}
{"compound": "CCOC(=O)O[C@H](C)OC(=O)c1ccc2c(c1)cc(C(=O)NC1CCN(C(C)C)CC1)n2Cc1cc(-c2ccc(Cl)s2)on1", "assigned.label": "inactive"}
